The reported numbers originate from the Deep4Chem optical property database.

# assay explanation: photoluminescence quantum yield (fraction); solvent given as SMILES
# condition summary: in CO
Mark t for reported photoluminescence quantum yield of 0.4 or greater; mark f for anything smaller.

Query string: Tell me whether photoluminescence quantum yield is at least 0.4 here: `O=c1c2ccccc2c2c3c(cccc13)c(-c1ccccc1)c1c3cccc4cccc(c43)c12`
Result string: t

Query string: Tell me whether photoluminescence quantum yield is at least 0.4 here: `Cc1ccc(C2=C3C=C(I)C=[N+]3[B-](F)(F)n3c2cc(I)c3I)cc1`
Result string: f

Query string: Tell me whether photoluminescence quantum yield is at least 0.4 here: `c1ccc2cc(-c3cc(-c4nccs4)nc(-c4nccs4)c3)ccc2c1`
Result string: f

###

# assay explanation: photoluminescence quantum yield (fraction); solvent given as SMILES
# condition summary: in CCOCC
Classification by photoluminescence quantum yield | ranges: lower bin: < 0.006; middle bin: ≥ 0.006 and < 0.3; upper bin: ≥ 0.3

Query string: Which category does the recorded photoluminescence quantum yield put `Cc1ccc(N(c2ccc(C)cc2)c2ccc(-c3ccc4c(c3)C(=O)c3ccccc3C4=O)cc2)cc1` in?
Result string: lower bin

Query string: Which category does the recorded photoluminescence quantum yield put `CCCCCCC(CCCCCC)n1c(=O)c2c3ccc4cccc5c6cccc7ccc(c2c1=O)c(c76)c3c45` in?
Result string: upper bin

Query string: Which category does the recorded photoluminescence quantum yield put `CC(=O)c1ccc(NC(=O)c2ccc(N(C)C)cc2)cc1` in?
Result string: lower bin

Query string: Which category does the recorded photoluminescence quantum yield put `CN(C)c1ccc(/C=C/c2ccccn2)cc1` in?
Result string: middle bin

Query string: Which category does the recorded photoluminescence quantum yield put `c1coc(-c2nc3ccccc3[nH]2)c1` in?
Result string: upper bin

Query string: Which category does the recorded photoluminescence quantum yield put `CN(C)c1ccc(/C=C/c2nc3ccccc3s2)cc1` in?
Result string: lower bin

Query string: Which category does the recorded photoluminescence quantum yield put `COc1ccc(/C=C/C2=[O+][B-](F)(F)OC(/C=C/c3ccc(OC)cc3)=C2c2ccccc2)cc1` in?
Result string: middle bin

Query string: Which category does the recorded photoluminescence quantum yield put `CN(C)c1cc(C#N)c(N(C)C)c(C#N)c1` in?
Result string: upper bin

Query string: Which category does the recorded photoluminescence quantum yield put `CN(C)c1ccc(C(=O)Nc2ccc(Cl)cc2)cc1` in?
Result string: lower bin

Query string: Which category does the recorded photoluminescence quantum yield put `CN(C)c1ccc(C(=O)Nc2ccc(F)cc2)cc1` in?
Result string: lower bin

Query string: Which category does the recorded photoluminescence quantum yield put `COC(=O)c1ccc(NC(=O)c2ccc(N(C)C)cc2)cc1` in?
Result string: middle bin

Query string: Which category does the recorded photoluminescence quantum yield put COC(=O)C(Cc1ccc2oc(-c3ccc(-n4c5ccccc5c5ccccc54)cc3)nc2c1)NC(=O)OC(C)(C)C (stereo not given) in?
Result string: upper bin

Query string: Which category does the recorded photoluminescence quantum yield put `CN(C)c1ccc(C(=O)Nc2cccc(Cl)c2)cc1` in?
Result string: middle bin

Query string: Which category does the recorded photoluminescence quantum yield put `N#Cc1ccc(-c2ccc3c(c2)c2cc(-c4ccc(C#N)cc4)ccc2c2c3nc(-c3ccc(-c4ccc(N(c5ccccc5)c5ccccc5)cc4)cc3)n2-c2ccccc2)cc1` in?
Result string: upper bin

Query string: Which category does the recorded photoluminescence quantum yield put `CN(C)c1ccc(C(=O)Nc2ccc([N+](=O)[O-])cc2)cc1` in?
Result string: lower bin

Query string: Which category does the recorded photoluminescence quantum yield put `O=C1c2ccccc2-c2cccc(O)c21` in?
Result string: middle bin

Query string: Which category does the recorded photoluminescence quantum yield put `OB(O)c1ccc(-c2ccc(N(c3ccccc3)c3ccccc3)cc2)cc1` in?
Result string: upper bin

Query string: Which category does the recorded photoluminescence quantum yield put `c1ccc(N2c3ccccc3Sc3cc(-c4cccc5nc6ccccc6cc45)ccc32)cc1` in?
Result string: middle bin

Query string: Which category does the recorded photoluminescence quantum yield put `COc1ccc(/C=C2\OC(=O)c3cc(N)ccc32)cc1` in?
Result string: middle bin
